The following compounds are shown together with reported cytotoxicity at 10 µM values.
# assay-procedure: Toxicity liver stage against HepG2, at 10uM
# Assay type: cell-based
# Design: test concentration 10 uM, cell line HepG2-A16-CD81EGFP
# condition-summary: human, HepG2-A16-CD81EGFP cells; read-out: INHIBITION
The answer is to be given in %; state only the numeric part.

Worked cases, answers included:
Data request: cytotoxicity at 10 µM lookup needed for "CN(C)C(=O)[C@@H]1CCO[C@@H]2CCN(c3ncccn3)C[C@H]21" , thanks.
Data returned: 6.65

Data request: cytotoxicity at 10 µM lookup needed for CCc1nc(C2CCCN2C(=O)c2cnns2)no1 (centres undefined) , thanks.
Data returned: 1.04

---
Data request: cytotoxicity at 10 µM lookup needed for "O=C(NC[C@H]1OC[C@@H](NC2CCOCC2)[C@@H]1O)C1CCCC1" , thanks.
Data returned: -1

Data request: cytotoxicity at 10 µM lookup needed for "CCN(Cc1noc(C(C)C)n1)Cc1ccc(C#N)cc1F" , thanks.
Data returned: -2.48

Data request: cytotoxicity at 10 µM lookup needed for "Cc1cccnc1N1CC2(CCN(Cc3cnn(C)c3)C2)C1" , thanks.
Data returned: -5.99

Data request: cytotoxicity at 10 µM lookup needed for CC(C)C(=O)N1Cc2ccccc2CC2(CCCN2C)C1 (centres undefined) , thanks.
Data returned: 4.51

Data request: cytotoxicity at 10 µM lookup needed for "Cc1noc(C)c1CNC(=O)C1(NS(C)(=O)=O)CCCCC1" , thanks.
Data returned: 6.55

Data request: cytotoxicity at 10 µM lookup needed for O=S(=O)(Cc1ccccc1F)N1CCCC1c1nnc2n1CCCCC2 (centres undefined) , thanks.
Data returned: 7.17

Data request: cytotoxicity at 10 µM lookup needed for "CCc1ncc(CN[C@@H]2CCCN(C(C)=O)[C@H]2c2ccc(C)s2)cn1" , thanks.
Data returned: -26.2

Data request: cytotoxicity at 10 µM lookup needed for "O=C(NCCNCc1cccc2c1OCCCO2)C1CCCC1" , thanks.
Data returned: 8.08

Data request: cytotoxicity at 10 µM lookup needed for "CN(C)c1ccc(C(=O)NCCCc2ccccn2)cn1" , thanks.
Data returned: -54

Data request: cytotoxicity at 10 µM lookup needed for "Cc1cc(C(=O)N2CCCN(Cc3nccn3C)CC2)no1" , thanks.
Data returned: 0.47

Data request: cytotoxicity at 10 µM lookup needed for CCc1n[nH]c(C(=O)N2CCC3(CCCN(CCOC)C3=O)C2)c1C (centres undefined) , thanks.
Data returned: 6.38

Data request: cytotoxicity at 10 µM lookup needed for c1cnc(NCC2Cn3nnc(-c4ccoc4)c3CO2)nc1 (centres undefined) , thanks.
Data returned: -76.1
